substrate: CCCCC/C=C\C/C=C\C=C\[C@@H](C/C=C\CCCC(=O)O)OO; experiment: purified protein; format: biochemical, Capnella imbricata; settings: 50 mM Tris pH 8.0, 100 mM NaCl, 1 mM CaCl2, 20 °C, 5–50 μM substrate
attribute measured: kcat (s⁻¹)

protein	reading
C. imbricata cAOS (cAOS-H4 domain) (Capnella imbricata; L150F) (protein, N-terminal cAOS domain of the AOS-LOX fusion protein, without the LOX domain; cAOS-H4 (His4 tag) in pET11a; E. coli BL21(DE3), Ni-NTA; heme protein; monomer) MTWKNFGFDIFAERFGKDKLEKRIKDERTPPPDSPVFGGLTLRMKIEKFKTLFTLGTTLKGFRRATHTVGTGGIGEVTVVDDPKFPEHEFFKAGRKLPVRLRHANLKYPDDAGADARSFSIKFSDNDSESPLDIVMNTGEANIFWHTSSFEDFVPVKEGDSAKEYVYKNPYYYYNLVEALRRAPNTFAHLYYYSQVTMHFKAKDGKERYCRYRAIPGDVDIKEEEESGRLTEEEQRNIWTFSRYETEKRPDDYLRKEYVERLKKGPVNYRLQIQIHDVSPNDTATIFHAGILWDKETHPWFDLAKVSITTPMSPDVLERTNFNIVNQPKSLGLLDAKSPEDYNSIGQIRVSVYNWVQHLRKLKLGSLIPAGQN	203
C. imbricata cAOS (cAOS-H4 domain) (Capnella imbricata) (protein, N-terminal cAOS domain of the AOS-LOX fusion protein, without the LOX domain; cAOS-H4 (His4 tag) in pET11a; E. coli BL21(DE3), Ni-NTA; heme protein; monomer) MTWKNFGFDIFAERFGKDKLEKRIKDERTPPPDSPVFGGLTLRMKIEKFKTLFTLGTTLKGFRRATHTVGTGGIGEVTVVDDPKFPEHEFFKAGRKLPVRLRHANLKYPDDAGADARSFSIKFSDNDSESPLDIVMNTGEANIFWHTSSLEDFVPVKEGDSAKEYVYKNPYYYYNLVEALRRAPNTFAHLYYYSQVTMHFKAKDGKERYCRYRAIPGDVDIKEEEESGRLTEEEQRNIWTFSRYETEKRPDDYLRKEYVERLKKGPVNYRLQIQIHDVSPNDTATIFHAGILWDKETHPWFDLAKVSITTPMSPDVLERTNFNIVNQPKSLGLLDAKSPEDYNSIGQIRVSVYNWVQHLRKLKLGSLIPAGQN	1840
C. imbricata cHPL (catalase-related hydroperoxide lyase domain) (Capnella imbricata; R56G) (protein, N-terminal cHPL domain of the HPL-LOX fusion protein, without the LOX domain; cHPL-His4 in pET11a; E. coli BL21(DE3), Ni-NTA; heme protein; monomer 45 kDa plus oligomers 440-670 kDa) MVWKNFGYEIFAEKFGKDELEKRIKDEHTAPPESPLFGSLKLKMKKEKFKILFTLGTTMEGFRRPTHTVATGGLGEITIVSDPKFPEHEFYRAGRKFPARLRHANLKLLDDAGSDARSFSIKFADNDSESPMDIVMNTGEANIFWNTSSFEDFVSSSAGESAAKEYVYKNPYYYYYSIEALRRAPETFAHLYYYSQLTMHFKAKDGKVRYCRYRAIPGDADIKEEEESGRLTEEEQRNVWIRSRHQNEKRPDDYLRKEYVERLGKGPVNYRLQIQIHEASPDDTATIFHAGIMWNKETHPWFDLAKVSIKTPLSPDVLERTSFNIVNQPESLGLLEAKSPEDYNSIGQIRVAVYKWIQHLRKLKVGSLVPTGQN	304

Reference source for all entries: paper PMC5617202
